- STUDY SYSTEM: Neuropeptide FF receptor 1 (Homo sapiens)
- Sequence (Q9GZQ6 whole entry): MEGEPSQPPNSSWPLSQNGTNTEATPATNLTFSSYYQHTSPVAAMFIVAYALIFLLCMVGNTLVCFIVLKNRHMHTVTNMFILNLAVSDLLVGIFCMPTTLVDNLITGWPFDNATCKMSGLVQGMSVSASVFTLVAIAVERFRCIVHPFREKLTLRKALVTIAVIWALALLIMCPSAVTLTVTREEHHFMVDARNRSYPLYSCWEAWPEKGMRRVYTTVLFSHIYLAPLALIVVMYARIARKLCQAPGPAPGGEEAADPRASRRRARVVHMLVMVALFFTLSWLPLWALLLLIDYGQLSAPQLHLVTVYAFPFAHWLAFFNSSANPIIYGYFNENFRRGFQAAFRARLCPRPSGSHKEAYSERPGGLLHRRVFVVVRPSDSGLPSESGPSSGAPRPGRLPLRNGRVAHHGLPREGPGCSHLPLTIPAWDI
- TEST NAME: Antagonist activity at human NPFF1 receptor expressed in CHO cells assessed as reversal of NPVF-induced inhibition of intracellular cAMP accumulation after 10 mins by liquid scintillation counting analysis relative to control
- Type: functional, cell-based
REPORTED PROPERTY: EC50 (µM)

LINE NOTATION	STUDY SYSTEM	NUMERIC RESULT
N=C(N)NCC(=O)NCC1(Cc2cccc3ccccc23)CCN(Cc2ccccc2)CC1	Neuropeptide FF receptor 1 (Homo sapiens)	2.6
N=C(N)NCCNC(=O)C1(Nc2ccccc2)CCN(Cc2ccccc2)CC1	Neuropeptide FF receptor 1 (Homo sapiens)	3.52
N=C(N)NCC(=O)NCC1(Nc2ccccc2)CCN(Cc2ccccc2)CC1	Neuropeptide FF receptor 1 (Homo sapiens)	22
